Test: A qHTS for Small Molecule Inhibitors of Shiga Toxin
Conditions: Vero cells, Shiga toxin protein synthesis inhibition reporter; at 38.7 µM
Out of some 290,000 compounds screened, about 27,000 (9.3%) were called active. Cut-off read from the data, not from the text of the source: active = inhibition mostly above about 28% (no sharp cut-off); inactive = mostly below about 43%. This excerpt belongs to a sample that is enriched for actives.
Lab note: assign the record to one of active, inactive

Please review the entries below; each comes with its answer.
# COMPOUND, ASSIGNED_CLASS
records = [
    ("COCC1CCN(C(=O)C2CCC(=O)N(CC3CCCCC3)C2)CC1 (centres undefined)", "inactive"),
    ("CC1CCCCN1C(=O)CCS(=O)(=O)Cc1ccccc1 (centres undefined)", "inactive"),
    ("O=C1c2cccc3cccc(c23)C(=O)N1c1cccc(O)c1", "inactive"),
]

Here's the next entry for you.
Query: Name the outcome recorded for CN1CCN(/N=C/c2ccc(-c3ccc([N+](=O)[O-])cc3)o2)CC1 in the assay.
Response: active

Entry source: PubChem BioAssay AID2315
